// provenance: patent US20190055322A1

Biological target: PcrV of P. aeruginosa strain PA103 (on TTSS-induced bacteria) (Pseudomonas aeruginosa strain PA103)
Assay: cell-based or functional assay
propertyName: % inhibition in P3X63 cytotoxicity assay, extract 1/150 (%)
Numbers only; they are read as %.

Query: Recorded % inhibition in P3X63 cytotoxicity assay, extract 1/150 of 1E11-40GS-4G10 (VHH) EVQLVESGGGLVQPGGSLRLSCAASGSTRSVNPMAWFRQAPGRQREWVATISRSGYATYADSVKGRFTISGDNAKSSVYLQMNSLKPEDTAVYYCVTGTYWGQGTLVTVSSGGGGSGGGGSGGGGSGGGGSGGGGSGGGGSGGGGSGGGGSEVQLVESGGGLVQAGGSLRLSCVISEDGVRNYDMGWFRQAPGKEREFVATINWSGGSTNYADSVKGRFTVSRDNAKNTMYLQMDSLKPEDTAVYYCVAAGFYNNYLRTAPNDWNDWGQGTQVTVSS , please.
Response: 67

Query: Recorded % inhibition in P3X63 cytotoxicity assay, extract 1/150 of 5E02-40GS-1E11 (VHH) EVQLVESGGGLVQPGGSLRLSCAASGITLDSIAICWFRQAPGKEREGVSCSRGSDGSTYYADSVKGRFTISRVNAKNTVYLQMNSLKPEDTAVYYCAAAPSIFYSGGYFPSGMDYWGKGTQVTVSSGGGGSGGGGSGGGGSGGGGSGGGGSGGGGSGGGGSGGGGSEVQLVESGGGLVQPGGSLRLSCAASGSTRSVNPMAWFRQAPGRQREWVATISRSGYATYADSVKGRFTISGDNAKSSVYLQMNSLKPEDTAVYYCVTGTYWGQGTLVTVSS , please.
Response: 60

Query: Recorded % inhibition in P3X63 cytotoxicity assay, extract 1/150 of Nanobody 234 (7C10-40GS-5H01) (VHH) EVQLVESGGGLVQAGGSLRLSCTASGRTLSSYTMGWFRQAPGTEREFVAAMTRSGFNTYYADSVKGRFTISRDSTENTMALQMSSLKPEDTAVYYCTAGRGLTSYRADYWGQGTLVTVSSGGGGSGGGGSGGGGSGGGGSGGGGSGGGGSGGGGSGGGGSEVQLVESGGGLVQPGGSLRLSCAASGSTLDYYAIGWFRQAPGKEREGVSCTSNSGSTYYGGSVKGRFTASRDNAKNTVYLQMNSLRPEDTAVYYCVATIGCATLGGTLDVQRYYYRGQGTLVTVSS , please.
Response: 63

Query: Recorded % inhibition in P3X63 cytotoxicity assay, extract 1/150 of 4G10-40GS-7C10 (VHH) EVQLVESGGGLVQAGGSLRLSCVISEDGVRNYDMGWFRQAPGKEREFVATINWSGGSTNYADSVKGRFTVSRDNAKNTMYLQMDSLKPEDTAVYYCVAAGFYNNYLRTAPNDWNDWGQGTQVTVSSGGGGSGGGGSGGGGSGGGGSGGGGSGGGGSGGGGSGGGGSEVQLVESGGGLVQAGGSLRLSCTASGRTLSSYTMGWFRQAPGTEREFVAAMTRSGFNTYYADSVKGRFTISRDSTENTMALQMSSLKPEDTAVYYCTAGRGLTSYRADYWGQGTLVTVSS , please.
Response: 81

Query: Recorded % inhibition in P3X63 cytotoxicity assay, extract 1/150 of Nanobody 308 (6B05-40GS-1E11) (VHH) EVQLVESGGGLVQPGGSLRLSCAASGSIFSINTMGWYRQAPGKQRELVSTITSNLVPHYADSVQGRFTISRDNARNTVYLQMNSLKPQDTAHYYCNAWARSSGATPYTNYWGQGTLVTVSSGGGGSGGGGSGGGGSGGGGSGGGGSGGGGSGGGGSGGGGSEVQLVESGGGLVQPGGSLRLSCAASGSTRSVNPMAWFRQAPGRQREWVATISRSGYATYADSVKGRFTISGDNAKSSVYLQMNSLKPEDTAVYYCVTGTYWGQGTLVTVSS , please.
Response: 57
